Tested on: OVCAR-8 ovarian
Experiment: NCI-60 one-dose screen, 48 h
Conditions: 10 µM unless noted
This is part of a sample that, as a whole, favours compounds with a hit. Of some 83,000 tested, about 20% had one in any assay. The source made the active and inactive calls. The calls were made as follows: active = growth percent below 10; inactive = the rest.
Result category, one only: T for active, F for inactive

Known results for compounds:
O=C(N[C@@H]1CCCc2ccccc21)[C@H](CCC(=O)N1CCN(C2CCCCC2)CC1)N1C(=O)[C@@H](N2C(=O)OC[C@@H]2c2ccccc2)[C@H]1/C=C/c1ccccc1 = F
CCCCC(CCCCCC(CCCC)C1NC(C)Cc2cc(OC)c(OC)cc21)C1NC(C)Cc2cc(OC)c(OC)cc21 (stereo not drawn) = T
CC1(C)CC(=O)c2c(ccc(C(=O)C[C@@H](N)CO)c2N)O1 = T
C=C(C)[C@@H]1CC[C@]2(COCCCN)CC[C@]3(C)[C@H](CC[C@@H]4[C@@](C)(CCCNCCCN)[C@H](C(=C)C)CC[C@]43C)[C@@H]12 = T
Cc1cc2c(C(C)C)c(O)c(O)c(C=NCc3ccoc3)c2c(O)c1-c1c(C)cc2c(C(C)C)c(O)c(O)c(C=NCc3ccco3)c2c1O = F

Hi, sorry to bother you, what did the test record for `Cc1cnc([C@]23CC[C@@H](C)[C@H](C)[C@H]2C2=CC[C@@H]4[C@@]5(C)Cc6c([nH]c7ccccc67)C(C)(C)[C@@H]5CC[C@@]4(C)[C@]2(C)CC3)o1` ?
F

# iterate: `N#CCCc1c[nH]c2ccccc12`
F

Also check `CCOC(=O)c1cc(C(=O)c2ccc(OC)c(OC)c2)n2ccc(-c3ccccn3)cc12`
F

Quick one: `CC(C)c1ccc(C(=O)Nc2sc3c(c2C#N)CCC(=O)C3)cc1`
F

Follow-up entry: `CCOC(=O)COc1c(C)cc(SSc2cc(C)c(OCC(=O)OCC)c(C)c2)cc1C`
F

And the next one, `Cn1cc(-c2noc(C(=O)c3cn(C)c4ncccc34)n2)c2ccccc21` ?
F

Another: `c1ccc2c(c1)CN(CCCN1CCOCC1)C2`
F

Same lookup for `CC(C)(C)c1cc(C(=O)N2CCC(C(=O)NCCN)CC2)cc(C(C)(C)C)c1` , please.
F

Would you kindly repeat that for `COC(=O)C(=Cc1ccccc1[N+](=O)[O-])C(=O)OC` ?
F

And for `C#C[C@]1(O)CC[C@H]2[C@@H]3CC=C4c5nc(Nc6ccccn6)sc5CC[C@]4(C)[C@H]3CC[C@@]21C` ?
F

And for `Cc1cnc(N)nc1OCC(C)(C)CNC(=O)c1cccc(-c2ccc(S(=O)(=O)Nc3ccc4c(c3)N(C(=O)C3CC3)CCC4)cc2)c1` ?
F

What would you report for `Cc1ccc(S(=O)(=O)Oc2ccc(Br)cc2Br)cc1` ?
F

Same thing, different compound: `Cc1ccc(-c2cc(-c3ccc(C)cc3)nc(NCCNc3ccnc4cc(Cl)ccc34)n2)cc1`
T

###

Tested on: HS 578T breast
Assay: NCI-60 one-dose screen, 48 h (100 = growth as untreated, 0 = no growth, -100 = all killed)
Details: 10 µM unless noted
Compounds without any hit were thinned out: in the full panel of roughly 83,000, 20% have a hit.
EXPERIMENTAL READOUT: growth (%)
Write the answer as a number in %, unit excluded.

N#CCCc1c[nH]c2ccccc12 = 94.3
Cc1cccc(C[C@H](NC(=O)Nc2ccc(Cl)cc2F)C(=O)N[C@@H]2C(=O)N3C[C@H](OC(=O)CCN(C)C)C[C@H]3C(=O)N3CCCC[C@H]3C(=O)N[C@@H](C)C(=O)N3C[C@H](C)C[C@H]3C(=O)O[C@H]2C)c1 = 26.2
Nc1ccc2c(c1)Cc1cc(NC(=O)C(F)(F)F)ccc1-2 = 119

Now consider the entry below.
Item under review: `C[C@@H]1C[C@H]2C(=O)O[C@@H](C)[C@H](NC(=O)[C@H](Cc3cc(F)cc(F)c3)NC(=O)Nc3ccc(C4CC4)cc3F)C(=O)N3CCC[C@H]3C(=O)N3CCCC[C@H]3C(=O)N[C@@H](C)C(=O)N2C1` . Reported growth?
18.1
